ENDPOINT: melting point

A selection of reference data follows.
{"COMPOUND": "C[Si](C)(C)c1cccc2cc(C(=O)Nc3ccc(N4CCC4)nc3)n(Cc3cccc(F)c3)c12", "melting point": "160 to 162 °C"}
{"COMPOUND": "CN(C(CCn1c(=O)cc(-c2ccccc2)[nH]c1=O)C(=O)NO)S(=O)(=O)c1ccc(Oc2ccccc2)cc1 (centres undefined)", "melting point": "179 to 181 °C"}
{"COMPOUND": "CCOC(=O)COc1cc(O)c2c(c1Cl)OC1(CCCCC1)CC2=O", "melting point": "110 to 111 °C"}

Q: Tell me the measured melting point of CC(=O)SCC(C)C(=O)Nc1cncc(C(=O)O)c1 (centres undefined) , please.
A: 154 to 158 °C

Q: Another compound: "Cc1nnc(-c2ccccc2O)o1"
A: 74 to 76 °C
